Each entry below carries its recorded inhibition at 0.1 µM.
# target or system: YES1 kinase (Homo sapiens)
# method notes: YES1 kinase inhibition, ADP Glo assay (Promega)
# Assay type: biochemical
# experimental setup: compound 100 nM; read-out: YES1 enzyme, % inhibition, 100 nM
Enter your answer as a number in %; do not include the unit.

These solved cases illustrate the format of a correct answer.
In [3]: df
Out[3]:
                                   compound  result
0  COc1cc(-c2cc(N3C[C@@H]4[C@H](C3)[C@H]4N(C)C)n3ncnc(N)c23)ccc1NC(=O)OC(C)(C)C      90
1  COc1cc(-c2cc(N3CCC(C)(N)CC3)n3ncnc(N)c23)ccc1NC(=O)OC(C)(C)C      92
2  COc1cc(-c2cc(N3CCC4C(CCN4C)C3)n3ncnc(N)c23)ccc1NC(=O)OC(C)(C)C (centres unmarked)      69

# inhibition at 0.1 µM lookup, item COc1cc(-c2cc(N3CC(C)C(N)C(C)C3)n3ncnc(N)c23)ccc1NC(=O)OC(C)(C)C (centres unmarked)
59

Recorded inhibition at 0.1 µM of COc1cc(-c2cc(NCC3CCNCC3)n3ncnc(N)c23)ccc1NC(=O)OC(C)(C)C , please.
64

Reported inhibition at 0.1 µM for COc1cc(-c2cc(N3CCC4(CC3)CNC(=O)C4)n3ncnc(N)c23)ccc1NC(=O)OC(C)(C)C : what is it?
90

* * *

# target or system: YES1 kinase (Homo sapiens, UniProt P07947)
# Sequence (P07947 whole entry): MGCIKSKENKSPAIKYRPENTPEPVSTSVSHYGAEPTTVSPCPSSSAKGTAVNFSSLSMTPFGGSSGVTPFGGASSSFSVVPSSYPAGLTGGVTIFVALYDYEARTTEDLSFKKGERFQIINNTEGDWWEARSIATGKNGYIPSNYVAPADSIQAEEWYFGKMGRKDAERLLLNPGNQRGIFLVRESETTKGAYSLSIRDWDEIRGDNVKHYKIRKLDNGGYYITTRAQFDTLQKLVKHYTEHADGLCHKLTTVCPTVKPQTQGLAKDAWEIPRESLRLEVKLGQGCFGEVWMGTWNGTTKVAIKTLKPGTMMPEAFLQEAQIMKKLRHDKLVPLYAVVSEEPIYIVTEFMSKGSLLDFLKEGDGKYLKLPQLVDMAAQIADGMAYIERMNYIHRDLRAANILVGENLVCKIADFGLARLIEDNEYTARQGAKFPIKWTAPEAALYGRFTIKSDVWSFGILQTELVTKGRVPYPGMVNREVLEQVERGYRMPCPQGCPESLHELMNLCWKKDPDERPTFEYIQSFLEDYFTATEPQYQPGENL
# method notes: YES1 kinase inhibition, ADP Glo assay (Promega)
# Type: biochemical
# experimental setup: compound 100 nM; read-out: YES1 enzyme, % inhibition, 100 nM
quantity: inhibition at 0.1 µM (%)
# output: bare number, implied unit %

Below, 2 compounds whose answers are already recorded.
>>> print(df.to_string())
                                   compound                          target_or_system  endpoint_unit  result
0  COc1cc(-c2cc(N3CC[C@@H](N)[C@@H](F)C3)n3ncnc(N)c23)ccc1NC(=O)OC(C)(C)C [Example 46]  YES1 kinase (Homo sapiens, UniProt P07947)              %      77
1  COc1cc(-c2cc(CCN3CCC(N(C)C)CC3)n3ncnc(N)c23)ccc1NC(=O)OC(C)(C)C [Example 98]  YES1 kinase (Homo sapiens, UniProt P07947)              %      90

What value of inhibition at 0.1 µM has been recorded for this entry: COc1cc(-c2cc(N3CCC4(CCCN4C)CC3)n3ncnc(N)c23)ccc1NC(=O)OC(C)(C)C [Example 24]
82

* * *

# System: KYSE-70 esophageal cancer cell line
# method notes: Cell growth inhibition of KYSE-70 (Sulforhodamine B)
# Type: cell-based
# experimental setup: Homo sapiens; KYSE-70, 72 hours; read-out: KYSE70 GI50
quantity: GI50

For orientation, consider the following solved cases.
In [3]: df
Out[3]:
                                   molecule                     target_or_system          result
0  COc1cc(-c2cc(N3CCC(C(C)N)CC3)n3ncnc(N)c23)ccc1NC(=O)OC(C)(C)C (centres unmarked)  KYSE-70 esophageal cancer cell line  100 to 1000 nM
1  COc1cc(-c2c(C)c(N3CCC(N(C)C)CC3)n3ncnc(N)c23)ccc1NC(=O)OC(C)(C)CF  KYSE-70 esophageal cancer cell line        ≤ 100 nM
2  COc1cc(-c2cc(N3CCC(C(C)(C)N)CC3)n3ncnc(N)c23)ccc1NC(=O)OC(C)(C)C  KYSE-70 esophageal cancer cell line        ≤ 100 nM

Reported GI50 for COc1cc(-c2cc(N3CCC4(CC3)CNC(=O)C4)n3ncnc(N)c23)ccc1NC(=O)OC(C)(C)C : what is it?
100 to 1000 nM

# lookup: GI50 of COc1cc(-c2cc(N3CC4(CCN(C)C4)C3)n3ncnc(N)c23)ccc1NC(=O)OC(C)(C)C
≤ 100 nM

Reported GI50 for COc1cc(-c2cc(N3CCC(NC(C)=O)CC3)n3ncnc(N)c23)ccc1NC(=O)OC(C)(C)C : what is it?
100 to 1000 nM

Could you tell me which GI50 is on file for COc1cc(-c2c(C)c(N3CCC(N(C)C)CC3)n3ncnc(N)c23)ccc1NC(=O)OC(C)(C)C ?
≤ 100 nM

What does the record list as GI50 for COc1cc(-c2cc(N3CCC(CCN)CC3)n3ncnc(N)c23)ccc1NC(=O)OC(C)(C)C ?
100 to 1000 nM

GI50 lookup needed for COc1cc(-c2cc(N[C@H]3CC[C@@H](N)CC3)n3ncnc(N)c23)ccc1NC(=O)OC(C)(C)C , thanks.
100 to 1000 nM

Would you kindly share the measured GI50 for CNCCC1CCN(c2c(F)c(-c3ccc(NC(=O)OC(C)(C)C)c(OC)c3)c3c(N)ncnn23)CC1 ?
≤ 100 nM

Give the measured GI50 of CCN(CC)C1CCN(c2cc(-c3ccc(NC(=O)OC(C)(C)C)c(OC)c3)c3c(N)ncnn23)CC1 .
100 to 1000 nM
